Test system: AncSZ;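 also: 11-residue human phosphosite peptides and single-mutation variants displayed on the E. coli surface, counted by deep sequencing, each peptide's frequency after selection divided by its frequency in the unselected input library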;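 also: frequency after pTyr selection over input frequency; kinase dosed for 20-30% of maximal phosphorylation in three min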
procedure.details: phosphorylation enrichment, bacterial display (enrichment ratio); higher = better substrate or ligand; peptides without Tyr show the background
observation.type: phosphorylation enrichment

INSERT INTO results (residues, subject_of_test, observation_type, assay_result) VALUES
  ('WISNRYPDFSS [PRPH2_Y184_L185P]', 'AncSZ', 'phosphorylation enrichment', 0.798),
  ('KVMANYVYKAG [MAML2_Y513_M514V]', 'AncSZ', 'phosphorylation enrichment', 0.465),
  ('GANSEYIIAEK [ECHS1_Y35_F33S]', 'AncSZ', 'phosphorylation enrichment', 1.26),
  ('RRIHCYRGHLW [VHL_Y112_S111C]', 'AncSZ', 'phosphorylation enrichment', 0.626),
  ('AVIADYMFWLG [SPATA16_Y290_M286V]', 'AncSZ', 'phosphorylation enrichment', 2.25),
  ('EEKKKYFDTKI [CASP5_Y103_YF]', 'AncSZ', 'phosphorylation enrichment', 0.928),
  ('TKLKDYYIFNK [CCDC42_Y149_A144T]', 'AncSZ', 'phosphorylation enrichment', 1.02),
  ('RHPYFYAPELL [ALB_Y174]', 'AncSZ', 'phosphorylation enrichment', 1.38),
  ('CEQELYSQLVF [WAS_Y102_W97C_YF]', 'AncSZ', 'phosphorylation enrichment', 1.59),
  ('QTEAEYRFIYM [PTPN11_Y511_Q510E]', 'AncSZ', 'phosphorylation enrichment', 1.55),
  ('VIKDKYPKARY [APTX_Y209]', 'AncSZ', 'phosphorylation enrichment', 0.728),
  ('LTYHMYADPNF [SOS1_Y618]', 'AncSZ', 'phosphorylation enrichment', 2.15),
  ('MDYRSYPREYG [RBM10_Y44]', 'AncSZ', 'phosphorylation enrichment', 0.621),
  ('VNQSGYTLIRK [ATP6V0A2_Y688_R685Q]', 'AncSZ', 'phosphorylation enrichment', 0.572),
  ('ACEVLYNIVFM [NCF2_Y125_A128V]', 'AncSZ', 'phosphorylation enrichment', 2.4),
  ('TVLWLYTGTRP [UGT1A1_Y337_R336L]', 'AncSZ', 'phosphorylation enrichment', 1.17),
  ('EPTPGYEVSQR [TSC2_Y1788_G1791S]', 'AncSZ', 'phosphorylation enrichment', 0.83),
  ('GASRRYGSGVS [NEU1_Y242_W240R]', 'AncSZ', 'phosphorylation enrichment', 0.582),
  ('LKGQVYILGLE [ASS1_Y359_R363L]', 'AncSZ', 'phosphorylation enrichment', 1.37),
  ('PKAWNYELPAT [PROM1_Y34]', 'AncSZ', 'phosphorylation enrichment', 1.23),
  ('PVKSEYPSIKL [NPC2_Y119]', 'AncSZ', 'phosphorylation enrichment', 0.456),
  ('SVTCTCSPALN [TP53_Y126_Y126C]', 'AncSZ', 'phosphorylation enrichment', 1.16),
  ('SLMNQYVNKEF [RAB7A_Y28_K32E]', 'AncSZ', 'phosphorylation enrichment', 0.58);
